# Test system: RWP1 cells
# assay_remarks: Effect of anti-FZD5 Fabs on proliferation of pancreatic cancer cell lines (percent growth inhibition)
# Format: cell-based, human
# assay_setup: Fab 2 μg/ml
measurement_kind: percent growth inhibition, RWP1 2 μg/ml (%)
Field format: number, assumed %, no unit text.

Fill in: percent growth inhibition, RWP1 2 μg/ml of Fab-2899: anti-FZD5 Fab with antibody variable region Fv-2899; CDR SEQ ID NOs: 35, 36, 38, 77, 114, 153 (antibody, V domains shown) VH: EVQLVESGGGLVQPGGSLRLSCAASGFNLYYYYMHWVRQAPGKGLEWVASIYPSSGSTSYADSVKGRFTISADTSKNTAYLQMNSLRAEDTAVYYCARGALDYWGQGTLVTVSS VL: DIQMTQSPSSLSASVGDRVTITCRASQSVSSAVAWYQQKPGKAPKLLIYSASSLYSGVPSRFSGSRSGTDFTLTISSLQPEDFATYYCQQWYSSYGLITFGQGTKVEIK is ___
37.95
